Tested on: HeLa
Experiment: Cytotoxicity of the prodrug in human cells (CellTiter-Glo 2.0), HeLa
Format: cell-based
Details: 10 µM, versus untreated control; mean ± SD
Procedure: Compound cytotoxicity was evaluated in nontumor human dermal fibroblasts (NHDF), CCRF‐CEM, HL‐60, HeLa, and HepG2 cells. All cell lines were obtained from ATCC (Manassas, VA, USA). The cytotoxicity was assayed using CellTiter‐Glo 2.0 detection reagent (Promega, Madison, USA) according to the manufacturer's protocol. The concentration of prodrug used in this assay was 10 μM. This concentration was chosen as it would more accurately reflect the expected concentration in an in vitro assessment.
Recorded Metric: Viability HeLa (% control)

Molecule: CCOC(=O)[C@H](Cc1ccccc1)NP(=O)(COCCC(OCCCO)n1cnc2c(=O)[nH]cnc21)N[C@@H](Cc1ccccc1)C(=O)OCC (some centres unmarked) [21e]
Target Or System: HeLa
Experimental Result: 105
--
Molecule: CCOC(=O)[C@H](Cc1ccccc1)NP(=O)(COCCC(OCCCO)n1cnc2c(=O)[nH]c(N)nc21)N[C@@H](Cc1ccccc1)C(=O)OCC (some centres unmarked) [21f]
Target Or System: HeLa
Experimental Result: 106
--
Molecule: CCOC(=O)[C@H](Cc1ccccc1)NP(=O)(COCC(OCCO)n1cnc2c(=O)[nH]c(N)nc21)N[C@@H](Cc1ccccc1)C(=O)OCC (mixture of isomers) [21b]
Target Or System: HeLa
Experimental Result: 91
--
Molecule: CCOC(=O)[C@H](Cc1ccccc1)NP(=O)(CCOCC(OCCOCP(=O)(N[C@@H](Cc1ccccc1)C(=O)OCC)N[C@@H](Cc1ccccc1)C(=O)OCC)n1cnc2c(=O)[nH]cnc21)N[C@@H](Cc1ccccc1)C(=O)OCC (some centres unmarked) [19a]
Target Or System: HeLa
Experimental Result: 105
--
Molecule: CCOC(=O)[C@H](Cc1ccccc1)NP(=O)(CCOCC(OCCO)n1cnc2c(=O)[nH]c(N)nc21)N[C@@H](Cc1ccccc1)C(=O)OCC (some centres unmarked) [21d]
Target Or System: HeLa
Experimental Result: 100
--
Molecule: CCOC(=O)[C@H](Cc1ccccc1)NP(=O)(CCOCC(OCCO)n1cnc2c(=O)[nH]cnc21)N[C@@H](Cc1ccccc1)C(=O)OCC (some centres unmarked) [21c]
Target Or System: HeLa
Experimental Result: 97
--
Molecule: CCOC(=O)[C@H](Cc1ccccc1)NP(=O)(COCC(OCCO)n1cnc2c(=O)[nH]cnc21)N[C@@H](Cc1ccccc1)C(=O)OCC (some centres unmarked) [21a]
Target Or System: HeLa
Experimental Result: 97
--
Molecule: CCOC(=O)[C@H](Cc1ccccc1)NP(=O)(COCCC(OCCCO)n1ncc2c(=O)[nH]cnc21)N[C@@H](Cc1ccccc1)C(=O)OCC (some centres unmarked) [21g]
Target Or System: HeLa
Experimental Result: 106

----------
Protein target, amino acids: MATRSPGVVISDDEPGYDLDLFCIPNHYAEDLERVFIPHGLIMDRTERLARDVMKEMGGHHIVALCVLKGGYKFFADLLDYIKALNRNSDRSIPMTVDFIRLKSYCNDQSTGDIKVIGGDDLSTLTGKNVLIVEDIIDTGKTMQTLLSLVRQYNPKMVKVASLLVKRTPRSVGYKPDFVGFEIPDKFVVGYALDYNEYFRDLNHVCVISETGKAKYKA
Ki by entry:

Molecule: O=c1[nH]cnc2c1cnn2C(CCOCP(=O)(O)O)OCCCO (centres unmarked) [20i]
Sign: >
Ki / µM: 60

Molecule: O=c1[nH]c(Cl)nc2c1ncn2C(COCCP(=O)(O)O)OCCO (centres unmarked) [20e]
Sign: >
Ki / µM: 60

Molecule: O=c1[nH]cnc2c1ncn2C(COCCP(=O)(O)O)OCCOCP(=O)(O)O (centres unmarked) [18a]
Sign: >
Ki / µM: 60

Molecule: O=c1[nH]cnc2c1ncn2C(COCP(=O)(O)O)OCCO (centres unmarked) [20a]
Sign: =
Ki / µM: 160

Molecule: Nc1nc2c(ncn2C(COCCP(=O)(O)O)OCCOCP(=O)(O)O)c(=O)[nH]1 (centres unmarked) [18b]
Sign: =
Ki / µM: 0.7

Molecule: Nc1nc2c(ncn2C(COCP(=O)(O)O)OCCO)c(=O)[nH]1 (centres unmarked) [20b]
Sign: =
Ki / µM: 30

Molecule: Nc1nc2c(ncn2C(COCCP(=O)(O)O)OCCO)c(=O)[nH]1 (centres unmarked) [20d]
Sign: =
Ki / µM: 2.5

Molecule: O=c1[nH]cnc2c1ncn2C(CCOCP(=O)(O)O)OCCCO (centres unmarked) [20g]
Sign: >
Ki / µM: 60

Molecule: O=c1[nH]cnc2c1ncn2C(COCCP(=O)(O)O)OCCO (centres unmarked) [20c]
Sign: >
Ki / µM: 20

Molecule: Nc1nc2c(ncn2C(CCOCP(=O)(O)O)OCCCO)c(=O)[nH]1 (centres unmarked) [20h]
Sign: =
Ki / µM: 10

Molecule: O=c1[nH]cnc2c1cnn2C(COCCP(=O)(O)O)OCCO (centres unmarked) [20f]
Sign: >
Ki / µM: 60

Reference for the values: paper PMC12503909
